// data source = patent US12649719B2

Study system: Hb (Homo sapiens, UniProt P68871+P69905)
Construct: from tissue
Sequence (P69905 2-142 limits assumed): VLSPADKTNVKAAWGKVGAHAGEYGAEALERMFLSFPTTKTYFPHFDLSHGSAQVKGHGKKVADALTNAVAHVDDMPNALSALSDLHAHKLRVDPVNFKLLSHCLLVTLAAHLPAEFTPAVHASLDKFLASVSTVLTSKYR
Sequence (P68871 2-147 limits assumed): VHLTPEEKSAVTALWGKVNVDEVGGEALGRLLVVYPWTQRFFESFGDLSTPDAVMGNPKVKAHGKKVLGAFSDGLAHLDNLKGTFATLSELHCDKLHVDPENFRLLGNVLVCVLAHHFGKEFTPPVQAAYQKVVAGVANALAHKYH
Test details: Whole blood assay: oxygen equilibrium curves (Hemox Analyzer), change in O2 affinity of Hb
Assay type: cell-based
Study conditions: whole blood incubated 1 h at 37° C., equimolar ratio of hemoglobin to compound; sodium salts of 2B (Enantiomer 1), 4B, 5B used
Value kind: Delta-p50 (%)

// worked examples, Delta-p50 (%) included
Q: Requested read-out Delta-p50 (%), target or system Hb (Homo sapiens, UniProt P68871+P69905), entry O=Cc1c(O)cccc1OC[C@@H]1COCCN1C(=O)c1ccccc1C(=O)O [Compound 2A]
A: 4.19

Q: Requested read-out Delta-p50 (%), target or system Hb (Homo sapiens, UniProt P68871+P69905), entry O=Cc1c(O)cccc1OC[C@@H]1CSCCN1C(=O)c1ccccc1CCC(=O)O [Compound 9A]
A: 46.78

Q: Requested read-out Delta-p50 (%), target or system Hb (Homo sapiens, UniProt P68871+P69905), entry O=Cc1c(O)cccc1OCC1CSCCN1C(=O)c1ccccc1C(=O)O (single isomer, unassigned) [Compound 5A (Enantiomer 1)]
A: 11.04

Q: Requested read-out Delta-p50 (%), target or system Hb (Homo sapiens, UniProt P68871+P69905), entry O=Cc1c(O)cccc1OC[C@@H]1CCCCN1C(=O)c1cccnc1C(=O)O [Compound 1B]
A: 0.4

Q: Requested read-out Delta-p50 (%), target or system Hb (Homo sapiens, UniProt P68871+P69905), entry O=Cc1c(O)cccc1OC[C@@H]1COCCN1C(=O)c1cccnc1C(=O)O [Compound 3B]
A: 0.65

Q: Requested read-out Delta-p50 (%), target or system Hb (Homo sapiens, UniProt P68871+P69905), entry O=Cc1c(O)cccc1OC[C@@H]1CCCCN1C(=O)c1ccccc1CC(=O)O [Compound 4A]
A: 63.6

Q: Requested read-out Delta-p50 (%), target or system Hb (Homo sapiens, UniProt P68871+P69905), entry O=Cc1c(O)cccc1OC[C@@H]1CCCCN1C(=O)c1cccnc1CC(=O)O [Compound 5B]
A: −3.32

Q: Requested read-out Delta-p50 (%), target or system Hb (Homo sapiens, UniProt P68871+P69905), entry O=Cc1c(O)cccc1OC[C@@H]1COCCN1C(=O)c1cccnc1CC(=O)O [Compound 4B]
A: −8.28

Q: Requested read-out Delta-p50 (%), target or system Hb (Homo sapiens, UniProt P68871+P69905), entry O=Cc1c(O)cccc1OC[C@@H]1COCCN1C(=O)c1ccccc1CC(=O)O [Compound 3A]
A: 11.72

Q: Requested read-out Delta-p50 (%), target or system Hb (Homo sapiens, UniProt P68871+P69905), entry O=Cc1c(O)cccc1OCC1CSCCN1C(=O)c1ccccc1C(=O)O (single isomer, unassigned) [Compound 5A (Enantiomer 2)]
A: 19.57

[A] O=Cc1c(O)cccc1OCC1CSCCN1C(=O)c1cccnc1C(=O)O (single isomer, unassigned) [Compound 6B (Enantiomer 1)]
[B] O=Cc1c(O)cccc1OC[C@@H]1CCCCN1C(=O)c1ccccc1C(=O)O [Compound 1A]
Q: Field: entry with larger Delta-p50 (%) (options A / B ). // respond with label for picked entry
A: B
(B: 66.43%, A: 14.15%)
